target: P. falciparum apicoplast DNA polymerase (Pf-apPOL) (Plasmodium falciparum, UniProt Q8ILY1); assay: Fluorescence-based high-throughput DNA polymerase assay (molecular beacon), primary screen and dose-response; assay type: biochemical; details: DRC-2, 180', concentration 80;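 also: test concentration in µM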
Sequence (Q8ILY1 entry or part of it): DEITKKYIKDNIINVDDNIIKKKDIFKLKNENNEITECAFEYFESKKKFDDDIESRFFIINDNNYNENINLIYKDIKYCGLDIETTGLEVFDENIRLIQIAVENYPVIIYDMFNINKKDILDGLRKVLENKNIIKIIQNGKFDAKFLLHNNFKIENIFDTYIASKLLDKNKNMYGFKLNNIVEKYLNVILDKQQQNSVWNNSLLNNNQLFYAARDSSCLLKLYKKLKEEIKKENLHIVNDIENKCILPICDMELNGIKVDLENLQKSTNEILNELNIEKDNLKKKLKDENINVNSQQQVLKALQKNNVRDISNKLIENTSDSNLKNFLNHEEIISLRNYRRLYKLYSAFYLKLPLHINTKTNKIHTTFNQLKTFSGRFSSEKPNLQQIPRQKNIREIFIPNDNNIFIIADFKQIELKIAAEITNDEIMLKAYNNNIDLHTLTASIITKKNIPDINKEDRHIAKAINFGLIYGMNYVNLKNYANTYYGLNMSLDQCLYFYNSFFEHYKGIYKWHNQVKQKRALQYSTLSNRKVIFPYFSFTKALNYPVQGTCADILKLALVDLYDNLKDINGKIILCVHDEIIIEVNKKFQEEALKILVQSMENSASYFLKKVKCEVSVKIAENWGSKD
Hi there, I'd appreciate the recorded % inhibition apPOL 180' for every entry that follows.
Numbers only, in %.

These solved cases illustrate the format of a correct answer.
CN(C)C=C1SCc2ccccc2C1=O    45
O=C(Nc1nnc(-c2ccno2)o1)c1ccc2ncsc2c1    61
CSCCC(C)(O)CNC(=O)C1CC1 (stereo not drawn)    32

Each compound below has a recorded value; state its % inhibition apPOL 180'.
1. CCOc1ccccc1-c1nc(-c2ccc(=O)[nH]c2)no1 [Molecule 76, CCOc1ccccc1c1onc(n1)c1ccc(=O)[nH]c1]
2. COc1ccc2c(c1)CCc1c-2nc2ccc(Br)cc2c1C(=O)O
3. O=C(Nc1nnc(-c2cccs2)o1)c1ccc([N+](=O)[O-])o1
4. CCOC(=O)C(NCc1ccco1)(NC(=O)c1ccco1)C(F)(F)F (stereo not drawn)
5. CCSc1nnc(NC(=O)Cc2csc(NC(=O)c3cnccn3)n2)s1

a:
1. 54
2. 64
3. 76
4. 45
5. 81

q: In one line, give reported % inhibition apPOL 180' of the entry O=C(O)CC1SC(c2ccc3c(c2)OCO3)=NC1=O (stereo not drawn) .
a: 43
